Tested on: HepG2
Test: Cytotoxicity against human HepG2 cells assessed as reduction in cell viability incubated for 48 hrs by MTT assay
Type: functional, cell-based
Conditions: HepG2, 48 h
experimental.readout: pIC50
Scale note: pIC50 = -log10(concentration in M).

Q: Specify reported pIC50 for the compound shown: C[n+]1nn(Cc2ccc(Cl)cc2)c2c1C[C@]1(C)[C@H]3CC[C@@H]4[C@H]5[C@H]6OC[C@@]5(CCC6(C)C)CC[C@@]4(C)[C@]3(C)CC[C@H]1C2(C)C
Ans: 5.76

Q: Specify reported pIC50 for the compound shown: COc1ccc(Cn2nnc3c2C(C)(C)[C@@H]2CC[C@]4(C)[C@H](CC[C@@H]5[C@H]6[C@H]7OC[C@@]6(CCC7(C)C)CC[C@]54C)[C@@]2(C)C3)cc1
Ans: 4.86

Q: Specify reported pIC50 for the compound shown: CCCCn1n[n+](C)c2c1C(C)(C)[C@@H]1CC[C@]3(C)[C@H](CC[C@@H]4[C@H]5[C@H]6OC[C@@]5(CCC6(C)C)CC[C@]43C)[C@@]1(C)C2
Ans: 5.40

Q: Specify reported pIC50 for the compound shown: CC1(C)CC[C@]23CC[C@]4(C)[C@H](CC[C@@H]5[C@@]6(C)Cc7nnn(Cc8ccc(Cl)cc8)c7C(C)(C)[C@@H]6CC[C@]54C)[C@H]2[C@H]1OC3
Ans: 4.18

Q: Specify reported pIC50 for the compound shown: C[n+]1nn(Cc2ccccc2Cl)c2c1C[C@]1(C)[C@H]3CC[C@@H]4[C@H]5[C@H]6OC[C@@]5(CCC6(C)C)CC[C@@]4(C)[C@]3(C)CC[C@H]1C2(C)C
Ans: 5.52

Q: Specify reported pIC50 for the compound shown: COc1cc(Cn2n[n+](C)c3c2C(C)(C)[C@@H]2CC[C@]4(C)[C@H](CC[C@@H]5[C@H]6[C@H]7OC[C@@]6(CCC7(C)C)CC[C@]54C)[C@@]2(C)C3)cc(OC)c1OC
Ans: 5.52

Q: Specify reported pIC50 for the compound shown: C[n+]1nn(CC(c2ccccc2)c2ccccc2)c2c1C[C@]1(C)[C@H]3CC[C@@H]4[C@H]5[C@H]6OC[C@@]5(CCC6(C)C)CC[C@@]4(C)[C@]3(C)CC[C@H]1C2(C)C
Ans: 5.53

Q: Specify reported pIC50 for the compound shown: COc1cccc(Cn2n[n+](C)c3c2C(C)(C)[C@@H]2CC[C@]4(C)[C@H](CC[C@@H]5[C@H]6[C@H]7OC[C@@]6(CCC7(C)C)CC[C@]54C)[C@@]2(C)C3)c1
Ans: 5.66

Q: Specify reported pIC50 for the compound shown: CC1(C)CC[C@]23CC[C@]4(C)[C@H](CC[C@@H]5[C@@]6(C)Cc7nnn(CC(c8ccccc8)c8ccccc8)c7C(C)(C)[C@@H]6CC[C@]54C)[C@H]2[C@H]1OC3
Ans: 4.27

Q: Specify reported pIC50 for the compound shown: COc1ccc(Cn2n[n+](C)c3c2C(C)(C)[C@@H]2CC[C@]4(C)[C@H](CC[C@@H]5[C@H]6[C@H]7OC[C@@]6(CCC7(C)C)CC[C@]54C)[C@@]2(C)C3)cc1
Ans: 5.54

Q: Specify reported pIC50 for the compound shown: Cc1ccc(Cn2nnc3c2C(C)(C)[C@@H]2CC[C@]4(C)[C@H](CC[C@@H]5[C@H]6[C@H]7OC[C@@]6(CCC7(C)C)CC[C@]54C)[C@@]2(C)C3)cc1
Ans: 4.58

Q: Specify reported pIC50 for the compound shown: CC1(C)CC[C@]23CC[C@]4(C)[C@H](CC[C@@H]5[C@@]6(C)Cc7nnn(Cc8ccc(F)cc8)c7C(C)(C)[C@@H]6CC[C@]54C)[C@H]2[C@H]1OC3
Ans: 4.32

Q: Specify reported pIC50 for the compound shown: CC1(C)CC[C@]23CC[C@]4(C)[C@H](CC[C@@H]5[C@@]6(C)Cc7nnn(Cc8c(F)cccc8Cl)c7C(C)(C)[C@@H]6CC[C@]54C)[C@H]2[C@H]1OC3
Ans: 4.61

Q: Specify reported pIC50 for the compound shown: Cc1ccc(Cn2n[n+](C)c3c2C(C)(C)[C@@H]2CC[C@]4(C)[C@H](CC[C@@H]5[C@H]6[C@H]7OC[C@@]6(CCC7(C)C)CC[C@]54C)[C@@]2(C)C3)cc1
Ans: 5.64

Q: Specify reported pIC50 for the compound shown: COc1ccccc1CCn1n[n+](C)c2c1C(C)(C)[C@@H]1CC[C@]3(C)[C@H](CC[C@@H]4[C@H]5[C@H]6OC[C@@]5(CCC6(C)C)CC[C@]43C)[C@@]1(C)C2
Ans: 5.81

Q: Specify reported pIC50 for the compound shown: C[n+]1nn(CCc2c[nH]c3ccccc23)c2c1C[C@]1(C)[C@H]3CC[C@@H]4[C@H]5[C@H]6OC[C@@]5(CCC6(C)C)CC[C@@]4(C)[C@]3(C)CC[C@H]1C2(C)C
Ans: 5.50

Data provenance is ChEMBL document CHEMBL4706545.
